- methodDescription: yeast display, Sf9 membrane polyspecificity reagent, FACS + sequencing; frameworks hold sequencing errors
recordedEndpoint: polyreactivity (PSR sort gate)

Take a look at these entries with their results.
sequenceText | polyreactivity (PSR sort gate)
QVQLVESGGGLVQAGGSLRLSCAASGSIFSTNDMGWYRQAPGKERELVAAISVSGGSTYYADSVKGRFTISRDNAKNTVYLQMNSLKPEDTAVYYCNADYTRGTMYYWGQGTQVTGSS | low polyreactivity
QVHLVESGGGLVQAGGSLRLICAATGFIFGSYAMGWYRQAPGKERELVAAINWSGGNTYYADSVKGRFTISRDNEKNTVYLQMNSLKPEDTAVYYCAAQYVTSRFDYWGQGTQVTVSS | high polyreactivity
QVQLVESGGGLVQAGGSLRLSCAASGITFYRYDMGWYRQAPGKERELVAAISTRGGSTYYADSVKGRFTISRDNAKNTVYLQMNSLKPEDTAVYYCAKERVGTSLPFKDYYWGQGTQVTVSS | low polyreactivity
QVQLVESGGGLVQAGGSLRFSCAASGRIFGRYAMGWYRQAPGKERELDAAISYSGGSTYYADSVKGRFTISRDNAKNTVYLQMNSLKPEDTAVYYCAVVVYQYTPSQRFYYWGQGTQVTVSS | high polyreactivity
QVQLVESGGGLVQAGGSLRLRFAASGSIFVRNALGWYRQAPGKERELVAAITYSGSRTYSADSVKGRFTISRDNAKNTVYLQMNSLKPEETAVYYCAKVRVLVDKWSTFYEYYYWGQGTQVTVSS | low polyreactivity

In: State the recorded polyreactivity (PSR sort gate) for this entry: QVQLVESGGGLVQAGGSLRLSCAASGRTFAINAMGWYRQATAKERELVADITTDGYTYYADSVKGRFTISRDNAKNTVYLQMNSLKPEDTAVYYCATDSLDYFIRFKQFGYWGQGTQVTVSS
Out: low polyreactivity

In: State the recorded polyreactivity (PSR sort gate) for this entry: QVQLVESGGGLVQAGGSLRLSCAASGITFRFYAMGWYRQAPGKERELVAVISRGGGTTYYADSVKGRFTISRDNAKNTVYLHMNSLKPEDTAVYYCNAVIAWYRSDEYDYWGQGTQVTVSS
Out: high polyreactivity

In: State the recorded polyreactivity (PSR sort gate) for this entry: QVQLVESGGGLVQAGGSLRLSCAASGSTFGVNALGWYRQAPGKERELVAVITRSGGSTYYADSVKGRFTISRDNAKNTVYLQMNSLKPEDTAVYYCAKSGVVDWGQGTQVTVSS
Out: low polyreactivity

In: State the recorded polyreactivity (PSR sort gate) for this entry: QVQLVESGGGLVQAGGSLRLSCAASGRIFYINAMGWYRQAPGKERELVAAITSNGGSTYYADSVKGRFTISRDNAKNTVYLQMNSLKPEDTSVYYCAVSPRVPFRKPVFTPYNMYYWGQGTQVTVSS
Out: high polyreactivity

In: State the recorded polyreactivity (PSR sort gate) for this entry: QVQLVESGGGLVQAGGSLRLSCAASGRIFPGYAMGWYRQAPGKERELVAAISTNGGRTYYADSVKGRFTISRDNAKNTVYLQMNSLKPEDTADYYCAAESAYDAYDYWGQGTQVTVSS
Out: high polyreactivity

In: State the recorded polyreactivity (PSR sort gate) for this entry: QVQLVESGGGLVQAGGSLRLRCAASGRTFSGYAMGWYRQAPGKERELVAAITSGGNTYYADSVKGRFTISRDNAKNTVYLQMNSLKPEDTAVYYCAVVDYLWLLQLWLSDYWGQGTQVTVSS
Out: low polyreactivity

In: State the recorded polyreactivity (PSR sort gate) for this entry: QVQLVESGGGLVQAGGSLRLSCAASGSIFITYAMGWYRQAPGKERELVAAIRDSGDRTYYADSVKGRFTISRDNAKNTVYLQMNRLKPEETAVYYCNARWQEPLKYDYWGQGTQVTVSS
Out: low polyreactivity

In: State the recorded polyreactivity (PSR sort gate) for this entry: QVQLVESGGGLVQAGASLRLSCAASGIILSVYAMGWYRQAPGKERELVAAITTVGNTYYADSVKGRFTISRDNAKNTVYLEMNCLKPEDTAVYYCAAKRWTTYKYNYWGQGTQVTVSS
Out: high polyreactivity

In: State the recorded polyreactivity (PSR sort gate) for this entry: QVQLVESGGGLVQAGVSLRLSCAASGSTLVLNAMGWYRQAPGKERELDAAISRGGGSTSYADSVKGRFTISRDNAKNTVYLQMNSLKPEDTAVYYCNAYTYYHANHVQGFGYWGQGTQVTVSS
Out: low polyreactivity

In: State the recorded polyreactivity (PSR sort gate) for this entry: QVQLVESGGGLVQAGGSLRLICAASGFTFWNYAMGWYRQAPGKERELVAAITWSGGITYYADSVKGRFTISRDNAKNTVYLQMNSLKPEDTAVYYCAAYPQYQPEWYYIEYDYWGQGTQVTVSS
Out: low polyreactivity

###

- methodDescription: yeast display, Sf9 membrane polyspecificity reagent, FACS + sequencing; frameworks hold sequencing errors
recordedEndpoint: polyreactivity (PSR sort gate)

Take a look at these entries with their results.
sequenceText | assayValue
QVQLVESGGGLVQAGGSLRLSCAASGSTFYAYAMGWYRQAPGKERELVAGISKRVGRTYYADSVKGRFTISRDNAKNTVYLQMNSLKPEDTAVYYCNADVYAYPATWLDYWGQGTQVTVSS | high polyreactivity
QVQLVESGGGLVQAGGSLRLSCAASGFIFRLYTMGGYRQAPGKERELVAAISWSGGRTYYADSVKGRFTISRDNAKNTVYLQMNSLKPEDTAVYYCAKDLYLHTYYAYPYRFGSGYYWGQGTQVTVSS | low polyreactivity
QVQLVESGGGVVQAGGSLRLSCSASGSTFLGYVMGWYRQAPGKEREFVAVISRSGGDTYYADSVKGRFTISRDNAKNTVYLQMNSLKPEDTAVFYCNTRVRASSVDYDEGDYWGQGTQVTVSS | low polyreactivity
QVQLVESCGCLVQAGCSLRLSCAASGSTFQGYAMGWYRQAPGKERELVAAITIRGTRTYYADSVKGRFTISRDNAKNTVYLQMNSLKPEDTAVYYCAAYDYRHLEDKYDYWGQGTQVTVSS | high polyreactivity
QVQLVESGGGLVQAGGSLRLSCAASGSIFTTYTMGWYRQAPGKERELVAAITAGGGTTYYADSVKGRFTISRDNAKNTVYLQMNSLKPEDTAVYYCAAANSFYYIATGEYDYWGQGTQVTVSS | high polyreactivity
QVQREESGGGLVQAGGSLRLSCAASGITFKWYAMGWYRQAPGKEREFVAIISTRGGSTYYADSVKGRFTISRDNAKNTVYLQMNSLKPVDTAVYYCNAVRSRVVHRRGDFDYWGQGTQVTVSS | high polyreactivity
QVQLVESGGGLVQAGGSLRLSCAASGSIFLDNAMGWYRQAPGKERELVAAISKSGTRTYYADSVKGRFTISRDNAKTTVYLQMNSLKPEDTAVFYCNVVPKQAKRVELIGYYYWGQGTQVTVSS | high polyreactivity
QVQLVESGGGLVQAGGSLRLSFAASGSIFVKYAMGWYRQAPGKERELVAAITTGVGSTYYADSLKGRFTISRDNAKNTVYLQMNSLKPEDTAVYYCAVRPPRVRTVFYGGNYWGQGTQVTVSS | low polyreactivity
QVQLQESGGGLVQAGGSLRLTCAASGSISYPRTMGWYRQAPGKEREFVAGIGVGGTTYYADSVKGRYTISRDNAKNTVYLQMNSLKPEHAAVDYCAVAAYYDKYYVYWGQGTQVTVSC | low polyreactivity
QVQLVESGGGLVQAGGSLRLSCAASGRTFIVNTMGRYRQAPGKERELVAAITARGGRTYYADSVKGRFTISRDNAKNTVYLQMNSLKPEDTAVYYCNARTPPREAERYYWGLGTQVTVSS | low polyreactivity

In: State the recorded polyreactivity (PSR sort gate) for this entry: QVQLVESGGGLVQAGGSLRLSCAASGSTFGYYTMGWYRQAPGKERELVAAITKSGGGTYYADSVKGRFTISRDNAKNTVYLQMNSLKPEDTAVYYCADYSRFTSDYWGQGTQVTVSS
Out: high polyreactivity

In: State the recorded polyreactivity (PSR sort gate) for this entry: QVQLVESGGGLVQAGGSLRLSCAASGRMFKYSDMGWYRQAPGKERALVAGISISGSTSYADSVKGRFTISRDNAKNTVYLQMNSLKPEDTAVYYCAADSRGGYPSLYEYDYWGQGTQETVSS
Out: low polyreactivity

###

- methodDescription: yeast display, Sf9 membrane polyspecificity reagent, FACS + sequencing; frameworks hold sequencing errors
recordedEndpoint: polyreactivity (PSR sort gate)

Take a look at these entries with their results.
sequenceText | polyreactivity (PSR sort gate)
QVQLVESGGGLVQAGGSLRLSCAASGITCTFNTMGWYRQAPGKERELVAGITNGGSTYYADSVKGRFTISRDNAKNTVYLQMNSLKPEDTAVYYCNAQRRLRYGWFGPYDYWGQGTQVTVSS | low polyreactivity
QVQLVESGGGLVHAGGSLRLSCAASGRIFYKYAMAWYRQAPGKERELVAAISTRGGSTYYADSVKWRFTISRDNAKNTVYLQMNSLKPEDTAVYYCAALSAYGYDYWGQGTQVTVSS | high polyreactivity
QVQLVESGGGLVEAGGSLRLSCAASGSIFGNYALGWYRQAPGKERELVAAITSSNGNTYNADSVKGRFTISRDTAKNTVYFQMNSLKPEDTAVYYCATDSWSPYLQTIFYYWGHGTQVTVSS | low polyreactivity
QVQLVESRGGLVQAGRSLRLSCAASGSTFVQYVMGWYRQAPGKERELVAAITRSGGSTYYADSVKGRFTISRDNAKNTVYLHMNSLKPEDTAVYYCAAVPWRRSTRYDYWGQGTQVTVSS | high polyreactivity

Please turn your attention to the following entry.
In: State the recorded polyreactivity (PSR sort gate) for this entry: QVQLVESGGGLVQAGGSLRLSCSASGSIFSYYAMGWYRQAPGKERELVAAISRSGGSTYYADSVKGRFTISRDNAKNTVYLQMNSLKPEDTAVYYCAATRIHYPSYDYWGQGTQVTVSS
Out: high polyreactivity
